- Tested on: SW-620 colon
- assay_details: NCI tumour cell line growth inhibition, 48 h; in the data active means GI50 below about 0.43 µM; inactive means the rest
Hi there, use one of these labels in your reply, thanks! active, inactive

COc1cc2c(cc1OCCCCC(=O)Nc1cc3c4ccccc4ccc3c3ccccc13)N=C[C@@H]1CCCN1C2=O | inactive
CC/C=C\C[C@H](O)C/C=C1/C(=O)C=C[C@@H]1C/C=C\CCCC(=O)OC | inactive
CCOC(=O)C1CCN(S(=O)(=O)/N=C2/NC(=O)NC2=C(Cl)Cl)CC1 | inactive
O=C1/C(=C(/c2ccccc2)N2CCOCC2)Cc2ccccc21 | inactive
Cc1ccc(NC(=O)c2cccc(C(C)(C)C#N)c2)cc1Nc1ccc2ncn(C)c(=O)c2c1 | inactive
COc1ccc(-c2[nH]c3ccc(OC)cc3c2/C=C(\C#N)S(=O)(=O)c2ccccc2)cc1 | inactive

Please look at the following compound next.
Query: What call does the record list for CCCCC(CC)COC(=O)C[N+](C)(C)CCOC(c1ccccc1)c1ccccc1 (configuration not stated) ?
Response: inactive
